Values compiled from paper PMC9667936.

studySystem: 14-3-3γ (Homo sapiens, UniProt P61981)
Construct: made in house; host or cells: E. coli NiCo21 (DE3)
Sequence (P61981 whole entry): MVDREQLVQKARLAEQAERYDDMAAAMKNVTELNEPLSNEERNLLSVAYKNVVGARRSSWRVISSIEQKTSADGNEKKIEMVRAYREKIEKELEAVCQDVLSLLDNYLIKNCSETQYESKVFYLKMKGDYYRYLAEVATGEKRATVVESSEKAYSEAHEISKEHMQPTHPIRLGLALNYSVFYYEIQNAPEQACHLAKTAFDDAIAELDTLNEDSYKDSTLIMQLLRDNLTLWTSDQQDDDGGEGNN
experiment: Fluorescence anisotropy (FA) binary binding study: 14-3-3 titrated to fluorescein-labelled peptide
assaySetup: Table S4; from FA Kd; replicate 3
Where a SMILES comes first, the peptide text is derived from it. [ ]: non-standard residue; d: D form. ξ: configuration not given here. Phe(4-NO2) = N[C@@H](Cc1ccc([N+](=O)[O-])cc1)C(=O)O; ξAla(4-thiazolyl) = NC(Cc1cscn1)C(=O)O; pS = N[C@@H](COP(=O)(O)O)C(=O)O; β3hS = N[C@@H](CO)CC(=O)O; Nva = CCC[C@H](N)C(=O)O; βAla = NCCC(=O)O
Measured ΔG, listed per entry for reference.
Enter your answer as a number in kcal/mol; do not include the unit.

CCC[C@H](NC(=O)[C@H](N)CCCCN)C(=O)N[C@@H](Cc1ccc([N+](=O)[O-])cc1)C(=O)NC(Cc1cscn1)C(=O)N[C@@H](COP(=O)(O)O)C(=O)N[C@@H](Cc1ccc([N+](=O)[O-])cc1)C(=O)N[C@@H](CO)CC(=O)NCCC(=O)N[C@@H](Cc1ccc(O)cc1)C(=O)N[C@@H](CCCCN)C(N)=O (stereo partly drawn) [5a] (H-[dK][Nva][Phe(4-NO2)][ξAla(4-thiazolyl)][pS][Phe(4-NO2)][β3hS][βAla]YK-NH2; N-terminus and C-terminus assumed) : -7.9

# get_value(readout='ΔG', item= CCC[C@H](NC(=O)[C@H](N)CCCCN)C(=O)N[C@@H](Cc1ccc([N+](=O)[O-])cc1)C(=O)NC(Cc1cscn1)C(=O)N[C@@H](COP(=O)(O)O)C(=O)N[C@@H](Cc1ccc([N+](=O)[O-])cc1)C(=O)N[C@@H](CO)CC(=O)NCCC(=O)N[C@@H](Cc1ccccc1)C(=O)N[C@@H](CCCCN)C(N)=O (stereo partly drawn) [5b] (H-[dK][Nva][Phe(4-NO2)][ξAla(4-thiazolyl)][pS][Phe(4-NO2)][β3hS][βAla]FK-NH2; N-terminus and C-terminus assumed) )
-7.8

----------
studySystem: 14-3-3γ (Homo sapiens, UniProt P61981)
Construct: made in house; host or cells: E. coli NiCo21 (DE3)
experiment: Fluorescence anisotropy (FA) binary binding study: 14-3-3 titrated to fluorescein-labelled peptide
assaySetup: Table S3; ΔG minus ΔG of previous peptide, FA; replicate 1
Where a SMILES comes first, the peptide text is derived from it. [ ]: non-standard residue; d: D form. The star is where a group is joined. ξ: configuration not given here. FITC = O=C1OC2(c3ccc(O)cc3Oc3cc(O)ccc32)c2ccc(NC(=S)*)cc21; Phe(4-NO2) = N[C@@H](Cc1ccc([N+](=O)[O-])cc1)C(=O)O; ξAla(4-thiazolyl) = NC(Cc1cscn1)C(=O)O; pS = N[C@@H](COP(=O)(O)O)C(=O)O; β3hS = N[C@@H](CO)CC(=O)O; Nva = CCC[C@H](N)C(=O)O; AEA = NCCOCC(=O)O; βAla = NCCC(=O)O
The following compounds are shown together with reported ΔΔG (to previous) values.

Sample answers from the record:
CCC[C@H](NC(=O)[C@@H](CCCCN)NC(=O)COCCNC(=S)Nc1ccc2c(c1)C(=O)OC21c2ccc(O)cc2Oc2cc(O)ccc21)C(=O)N[C@@H](Cc1ccc([N+](=O)[O-])cc1)C(=O)NC(Cc1cscn1)C(=O)N[C@@H](COP(=O)(O)O)C(N)=O (stereo partly drawn) [2i] ({FITC-AEA}-[dK][Nva][Phe(4-NO2)][ξAla(4-thiazolyl)][pS]-NH2) : 0,85 kcal/mol
CCC[C@H](NC(=O)[C@@H](CCCCN)NC(=O)COCCNC(=S)Nc1ccc2c(c1)C(=O)OC21c2ccc(O)cc2Oc2cc(O)ccc21)C(=O)N[C@@H](Cc1ccc([N+](=O)[O-])cc1)C(=O)NC(Cc1cscn1)C(=O)N[C@@H](COP(=O)(O)O)C(=O)N[C@@H](Cc1ccc([N+](=O)[O-])cc1)C(N)=O (stereo partly drawn) [2h] ({FITC-AEA}-[dK][Nva][Phe(4-NO2)][ξAla(4-thiazolyl)][pS][Phe(4-NO2)]-NH2) : 0,63 kcal/mol

// moving on: another record for ΔΔG (to previous)
Could you share what ΔΔG (to previous) was measured for CCC[C@H](NC(=O)[C@@H](CCCCN)NC(=O)COCCNC(=S)Nc1ccc2c(c1)C(=O)OC21c2ccc(O)cc2Oc2cc(O)ccc21)C(=O)N[C@@H](Cc1ccc([N+](=O)[O-])cc1)C(=O)NC(Cc1cscn1)C(=O)N[C@@H](COP(=O)(O)O)C(=O)N[C@@H](Cc1ccc([N+](=O)[O-])cc1)C(=O)N[C@@H](CO)CC(=O)NCCC(N)=O (stereo partly drawn) [2f] ({FITC-AEA}-[dK][Nva][Phe(4-NO2)][ξAla(4-thiazolyl)][pS][Phe(4-NO2)][β3hS][βAla]-NH2) , tested on 14-3-3γ (Homo sapiens, UniProt P61981)?
1,50 kcal/mol

----------
studySystem: 14-3-3γ (Homo sapiens, UniProt P61981)
Construct: made in house; host or cells: E. coli NiCo21 (DE3)
experiment: Fluorescence anisotropy (FA) binary binding study: 14-3-3 titrated to fluorescein-labelled peptide
assaySetup: Table S3; from FA KD; replicate 1
Where a SMILES comes first, the peptide text is derived from it. [ ]: non-standard residue; d: D form. The star is where a group is joined. ξ: configuration not given here. FITC = O=C1OC2(c3ccc(O)cc3Oc3cc(O)ccc32)c2ccc(NC(=S)*)cc21; Phe(4-NO2) = N[C@@H](Cc1ccc([N+](=O)[O-])cc1)C(=O)O; ξAla(4-thiazolyl) = NC(Cc1cscn1)C(=O)O; pS = N[C@@H](COP(=O)(O)O)C(=O)O; β3hS = N[C@@H](CO)CC(=O)O; Nva = CCC[C@H](N)C(=O)O; AEA = NCCOCC(=O)O; βAla = NCCC(=O)O
experimentalReadout: ΔG

Which ΔG reading was recorded for the compound CCC[C@H](NC(=O)[C@@H](CCCCN)NC(=O)COCCNC(=S)Nc1ccc2c(c1)C(=O)OC21c2ccc(O)cc2Oc2cc(O)ccc21)C(=O)N[C@@H](Cc1ccc([N+](=O)[O-])cc1)C(=O)NC(Cc1cscn1)C(=O)N[C@@H](COP(=O)(O)O)C(=O)N[C@@H](Cc1ccc([N+](=O)[O-])cc1)C(=O)N[C@@H](CO)CC(=O)NCCC(=O)N[C@@H](Cc1ccc([N+](=O)[O-])cc1)C(N)=O (stereo partly drawn) [2e] ({FITC-AEA}-[dK][Nva][Phe(4-NO2)][ξAla(4-thiazolyl)][pS][Phe(4-NO2)][β3hS][βAla][Phe(4-NO2)]-NH2) ?
-9,60 kcal/mol

----------
studySystem: 14-3-3γ (Homo sapiens, UniProt P61981)
Construct: made in house; host or cells: E. coli NiCo21 (DE3)
experiment: Fluorescence anisotropy (FA) binary binding study: 14-3-3 titrated to fluorescein-labelled peptide
assaySetup: Table S3; from FA KD; replicate 3
Where a SMILES comes first, the peptide text is derived from it. [ ]: non-standard residue; d: D form. The star is where a group is joined. ξ: configuration not given here. FITC = O=C1OC2(c3ccc(O)cc3Oc3cc(O)ccc32)c2ccc(NC(=S)*)cc21; Phe(4-NO2) = N[C@@H](Cc1ccc([N+](=O)[O-])cc1)C(=O)O; ξAla(4-thiazolyl) = NC(Cc1cscn1)C(=O)O; pS = N[C@@H](COP(=O)(O)O)C(=O)O; β3hS = N[C@@H](CO)CC(=O)O; Nva = CCC[C@H](N)C(=O)O; AEA = NCCOCC(=O)O; βAla = NCCC(=O)O
Entries and their measured ΔG follow.

The examples below pair each entry with its known result.
CCC[C@H](NC(=O)[C@@H](CCCCN)NC(=O)COCCNC(=S)Nc1ccc2c(c1)C(=O)OC21c2ccc(O)cc2Oc2cc(O)ccc21)C(=O)N[C@@H](Cc1ccc([N+](=O)[O-])cc1)C(=O)NC(Cc1cscn1)C(=O)N[C@@H](COP(=O)(O)O)C(=O)N[C@@H](Cc1ccc([N+](=O)[O-])cc1)C(N)=O (stereo partly shown) [2h] ({FITC-AEA}-[dK][Nva][Phe(4-NO2)][ξAla(4-thiazolyl)][pS][Phe(4-NO2)]-NH2) : -7,04 kcal/mol
CCC[C@H](NC(=O)[C@@H](CCCCN)NC(=O)COCCNC(=S)Nc1ccc2c(c1)C(=O)OC21c2ccc(O)cc2Oc2cc(O)ccc21)C(=O)N[C@@H](Cc1ccc([N+](=O)[O-])cc1)C(=O)NC(Cc1cscn1)C(=O)N[C@@H](COP(=O)(O)O)C(=O)N[C@@H](Cc1ccc([N+](=O)[O-])cc1)C(=O)N[C@@H](CO)CC(N)=O (stereo partly drawn) [2g] ({FITC-AEA}-[dK][Nva][Phe(4-NO2)][ξAla(4-thiazolyl)][pS][Phe(4-NO2)][β3hS]-NH2) : -7,73 kcal/mol
CCC[C@H](NC(=O)[C@@H](CCCCN)NC(=O)COCCNC(=S)Nc1ccc2c(c1)C(=O)OC21c2ccc(O)cc2Oc2cc(O)ccc21)C(=O)N[C@@H](Cc1ccc([N+](=O)[O-])cc1)C(=O)NC(Cc1cscn1)C(=O)N[C@@H](COP(=O)(O)O)C(=O)N[C@@H](Cc1ccc([N+](=O)[O-])cc1)C(=O)N[C@@H](CO)CC(=O)NCCC(=O)N[C@@H](Cc1ccc([N+](=O)[O-])cc1)C(N)=O (stereo partly drawn) [2e] ({FITC-AEA}-[dK][Nva][Phe(4-NO2)][ξAla(4-thiazolyl)][pS][Phe(4-NO2)][β3hS][βAla][Phe(4-NO2)]-NH2) : -9,59 kcal/mol

Given CCC[C@H](NC(=O)[C@@H](CCCCN)NC(=O)COCCNC(=S)Nc1ccc2c(c1)C(=O)OC21c2ccc(O)cc2Oc2cc(O)ccc21)C(=O)N[C@@H](Cc1ccc([N+](=O)[O-])cc1)C(=O)NC(Cc1cscn1)C(=O)N[C@@H](COP(=O)(O)O)C(=O)N[C@@H](Cc1ccc([N+](=O)[O-])cc1)C(=O)N[C@@H](CO)CC(=O)NCCC(N)=O (stereo partly drawn) [2f] ({FITC-AEA}-[dK][Nva][Phe(4-NO2)][ξAla(4-thiazolyl)][pS][Phe(4-NO2)][β3hS][βAla]-NH2) , state its recorded ΔG.
-8,07 kcal/mol
